Where do the numbers come from? From patent US8822517B2.

# System Under Test: UniProt:P08908
# Sequence (P08908 whole entry): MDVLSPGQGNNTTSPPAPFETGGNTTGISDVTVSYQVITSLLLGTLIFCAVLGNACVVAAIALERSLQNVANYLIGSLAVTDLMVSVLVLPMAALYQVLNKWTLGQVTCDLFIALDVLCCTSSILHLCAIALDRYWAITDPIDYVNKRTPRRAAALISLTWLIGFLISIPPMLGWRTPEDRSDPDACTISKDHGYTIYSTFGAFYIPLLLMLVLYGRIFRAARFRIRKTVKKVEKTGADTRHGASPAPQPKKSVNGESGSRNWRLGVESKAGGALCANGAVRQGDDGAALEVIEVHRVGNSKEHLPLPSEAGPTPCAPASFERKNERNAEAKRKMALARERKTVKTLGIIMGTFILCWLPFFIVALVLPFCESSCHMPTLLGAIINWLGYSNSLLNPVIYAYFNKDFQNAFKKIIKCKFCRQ
# Experiment Summary: Binding assay 5-HT1A (h), [3H]8-OH-DPAT, HEK-293 cells
# Design: expressed in transfected cells; host or cells: HEK-293 cells
# Assay Context: read-out: 5-HT1A
Measurement Name: inhibition at 1 µM (%)

>>> value_measured("O=S(=O)(NCCCCN1CCC(c2noc3cc(F)ccc23)CC1)c1ccsc1 [Compound 307]")
73
>>> value_measured("Cc1c(S(=O)(=O)NCCCCN2CCC(c3noc4cc(F)ccc34)CC2)sc2ccc(F)cc12 [Compound 101]")
82
>>> value_measured("O=S(=O)(NCCCCN1CCN(c2cccc3c2OCCO3)CC1)c1ccc2ccccc2c1 [Compound 386]")
96
>>> value_measured("O=S(=O)(NCCCCN1CCN(c2nsc3ccccc23)CC1)c1cccc2scnc12 [Compound 243]")
98
>>> value_measured("O=C1COc2c(cccc2N2CCN(CCCCNS(=O)(=O)c3cccc(C(F)(F)F)c3)CC2)N1 [Compound 430]")
86
>>> value_measured("O=S(=O)(NCCCCN1CCN(c2cccc3[nH]ccc23)CC1)c1cccc(Cl)c1 [Compound 113]")
100
>>> value_measured("O=S(=O)(NCCCCN1CCN(c2noc3ccccc23)CC1)c1ccc(Cl)c(Cl)c1 [Compound 93]")
48
>>> value_measured("O=S(=O)(NCCCCN1CCN(c2cccc3c2OCCO3)CC1)c1ccc(Cl)s1 [Compound 398]")
107
>>> value_measured("O=S(=O)(NCCCCN1CCC(c2noc3cc(F)ccc23)CC1)c1cccc2ccccc12 [Compound 17]")
84
>>> value_measured("O=S(=O)(NCCCN1CCC(c2noc3cc(F)ccc23)CC1)c1ccc(Cl)c(Cl)c1 [Compound 329]")
69
>>> value_measured("N#Cc1cccc(S(=O)(=O)NCCCN2CCC(c3noc4cc(F)ccc34)CC2)c1 [Compound 338]")
80
>>> value_measured("O=c1[nH]c2cccc(N3CCN(CCCNS(=O)(=O)c4cccc5ccccc45)CC3)c2[nH]1 [Compound 423]")
99
>>> value_measured("O=S(=O)(NCCCN1CCC(c2noc3cc(F)ccc23)CC1)c1cc2ccc(Cl)cc2s1 [Compound 347]")
92
>>> value_measured("O=S(=O)(NCCCN1CCC(c2noc3cc(F)ccc23)CC1)c1ccc2cc(Cl)ccc2c1 [Compound 98]")
80
>>> value_measured("O=S(=O)(NCCCN1CCC(c2noc3cc(F)ccc23)CC1)c1ccc(-c2ccccc2)cc1 [Compound 112]")
20
>>> value_measured("O=S(=O)(NCCCCN1CCN(c2noc3ccccc23)CC1)c1c[nH]c2ncccc12 [Compound 89]")
71
